Molecular target: T1, NRF2DBD (UniProt Q16236 451-567)
T1 sequence: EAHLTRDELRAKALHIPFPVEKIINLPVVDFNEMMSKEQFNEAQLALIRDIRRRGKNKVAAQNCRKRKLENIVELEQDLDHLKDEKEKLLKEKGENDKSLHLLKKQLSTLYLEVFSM
Experiment: EMSA; apparent; homodimer; 150 mM NaCl, 50 mM HEPES pH 7.9, 10% glycerol, 1 mM TCEP, 1 mM DTT, 2 mM MgCl2; 3 nM DNA; TEV and 3C 50 ug/mL each, 4 h 25 °C; competition then O/N 4 °C; gels 4 °C in 1X TBE
Details: protein: recombinant; tags: C-terminal 3C-6xHis; chain copies: 2; label: 5' fluorescein on forward strand; blunt
Measurement Name: Kd

Query: Kd lookup needed for HMOX1 CsMBE 30-mer (dsDNA) DNA 1: CTCGGGACCGTGACTCAGCAGGAAAAACAC DNA 2: GTGTTTTTCCTGCTGAGTCACGGTCCCGAG , thanks.
Reply: ~590 nM
